This collection of values is drawn from patent US7741352B2.

Exercise: for every item that follows, state its recorded melting point.

Record request: melting point value, item COc1ccc(-c2cccc(COc3ccc(C(=O)O)c(O)c3)c2)c(OC)c1
176 to 178 °C (dec.)

One more molecule: O=C(O)c1ccc(OCCCCCCO)cc1O
139 °C

Lookup CCCCCCCCOc1ccc(-c2nnn[nH]2)c(O)c1
142 to 146 °C

Please answer likewise for N#Cc1cccc(-c2cccc(COc3ccc(C(=O)O)c(O)c3)c2)c1
155 to 170 °C (dec.)

Another molecule to look at: NNC(=O)c1ccc(OCc2cccc(Br)c2)cc1O
201 to 203 °C

Continue with O=C(O)c1cccc(-c2cccc(COc3ccc(C(=O)O)c(O)c3)c2)c1
211 to 227 °C (dec.)

Let us now turn to N#Cc1ccc(NCc2ccc(-c3ccccc3)cc2)cc1O
196 to 197 °C

// repeat for COc1ccncc1-c1ccc(COc2ccc(C(=O)O)c(O)c2)cc1 and report
197 to 200 °C (dec.)

Check O=C(O)c1ccc(OC2CCOCC2)cc1O too.
179 to 181 °C (dec.)

Same for O=C(O)c1ccc(OCc2ccc3ccccc3n2)cc1O
197 °C (dec.)

Do the same for Cc1noc(C)c1COc1ccc(C(=O)O)c(O)c1 please
201 to 203 °C

Okay, and CC(=O)c1ccc(-c2cccc(COc3ccc(C(=O)O)c(O)c3)c2)s1 ?
210 to 215 °C (dec.)

What do you get for COc1cccc(-c2ccc(COc3ccc(C(=O)O)c(O)c3)cc2)c1 ?
197 to 199 °C (dec.)

One more molecule: O=C(O)c1ccc(NCc2ccc(OC(F)F)cc2)cc1O
161 to 162 °C

Continue with O=C(O)c1cccc(-c2ccc(COc3ccc(C(=O)O)c(O)c3)cc2)c1
249 to 255 °C (dec.)

O=C(O)c1ccc(OCc2cccc(-c3ccc4c(c3)OCCCO4)c2)cc1O ?
188 to 192 °C (dec.)

Note, next up: C=CCCOc1ccc(C(=O)O)c(O)c1 [Compound 1-5, 4-But-3-enyloxy-2-hydroxy-benzoic acid]
143 to 144 °C

Again, but for O=C(Nc1ccc(OCc2ccc(F)cc2)cc1O)C(F)(F)F
143 to 145 °C

Cool, now O=C(O)c1ccc(OCC(O)CO)cc1O (stereo not shown)
151 to 153 °C

Try this molecule too: O=C(O)c1ccc(OCCCN2CCCCC2)cc1O
194 °C (dec.)

Query O=C(O)c1ccc(NCc2ccc(F)cc2)cc1O next
175 °C (dec.)

Next entry: O=C(O)c1ccc(NCc2cccc([N+](=O)[O-])c2)cc1O
189 °C (dec.)

Do the same for CN(C)S(=O)(=O)c1ccc(-c2cccc(COc3ccc(C(=O)O)c(O)c3)c2)cc1 please
196 to 204 °C (dec.)

Next entry: Nc1cccc(-c2cccc(COc3ccc(C(=O)O)c(O)c3)c2)c1
205 to 208 °C (dec.)

Also need CC(C)=CCC/C(C)=C/COc1ccc(C(=O)O)c(O)c1 , thanks.
97 to 106 °C

Request: O=C(O)c1ccc(OCc2cccc(Br)c2)cc1O
191 to 197 °C

Similarly, O=C(O)c1ccc(OCc2cccc(-c3cccc4ccccc34)c2)cc1O ?
156 to 164 °C (dec.)

Same again, this time with Cn1ccc2cc(-c3cccc(COc4ccc(C(=O)O)c(O)c4)c3)ccc21
181 to 183 °C (dec.)

Field entry: O=C(O)c1ccc(OCc2cccc(-c3ccc4[nH]ccc4c3)c2)cc1O
193 to 196 °C (dec.)

Query O=C(O)c1ccc(OCc2cccc(-c3ccccc3)c2)cc1O next
184 °C (dec.)

Entry O=C(O)c1ccc(OCc2ccc(-c3ccco3)cc2)cc1O please
201 to 205 °C (dec.)

Thanks! And O=C(O)c1ccc(OCc2ccc(-c3ccoc3)cc2)cc1O ?
202 to 206 °C (dec.)

Another molecule: O=C(Oc1ccc(C(=O)O)c(O)c1)c1ccc(-c2ccccc2)cc1
> 275 °C

Next up: C=CCCCCCCOc1ccc(C(=O)O)c(O)c1 [Compound 1-10, 2-Hydroxy-4-oct-7-enyloxy-benzoic acid]
102 to 111 °C

Queued: O=C(O)c1ccc(OCCCCCCCCO)cc1O
119 to 121 °C

And the next one, CCCCCCCCOc1ccc(O)c(O)c1 ?
108 to 115 °C (dec.)

And the next one, O=C(O)c1ccc(OCc2cccc(-c3ccc(Cl)c(Cl)c3)c2)cc1O ?
211 to 215 °C (dec.)

---

Give melting point for every item shown.

So what's the measured melting point for this one? COc1cc(NC(=O)c2ccc(-c3ccccc3)cc2)ccc1C(=O)O
179 to 181 °C

// query: O=C(O)c1ccc(OCc2ccc(-c3cccc([N+](=O)[O-])c3)cc2)cc1O
211 to 214 °C (dec.)

Consider next the molecule O=C(O)c1ccc(OCc2cccc(-c3cccc([N+](=O)[O-])c3)c2)cc1O in the same way.
188 to 193 °C (dec.)

Then this molecule: O=C(O)c1ccc(OCc2ccc(-n3cncn3)cc2)cc1O
229 °C (dec.)

// query: CC(=O)c1cccc(-c2ccc(COc3ccc(C(=O)O)c(O)c3)cc2)c1
215 to 220 °C (dec.)

---

Kindly supply the reported melting point values for the records listed here.

Look up melting point: O=C(c1ccccc1)c1ccc(COc2ccc(C(=O)O)c(O)c2)cc1 [Compound 1-20]
198 to 199 °C

Ok, now O=C(O)c1ccc(OCc2ccc(-c3ccc4c(c3)OCO4)cc2)cc1O [Compound 3-14]
222 to 226 °C (dec.)

Also Cc1noc(C)c1-c1cccc(COc2ccc(C(=O)O)c(O)c2)c1 [Compound 3-40] , if possible.
155 to 176 °C (dec.)

For N#Cc1ccccc1-c1ccc(COc2ccc(C(=O)O)c(O)c2)cc1 [Compound 1-17] then?
220 °C (dec.)

Lookup COCCOCCOc1ccc(C(=O)O)c(O)c1 [Compound 1-4]
110 to 112 °C

Subsequent entry: Nc1ccc(Oc2ccc(C(=O)O)c(O)c2)cc1 [Compound 8-2]
187 to 188 °C

What do we get for O=C(O)c1ccc(OCc2ccc(-c3cccnc3)cc2)cc1O [Compound 3-1] ?
209 to 211 °C (dec.)

Can you check CCCCCCCCOc1ccc(C(=O)O)c(O)c1 [Compound 1-3, 2-Hydroxy-4-octyloxy-benzoic acid] next?
100 to 102 °C

Note, next up: O=C(O)c1ccc(OCc2cccc(-c3ccc4c(c3)OCCO4)c2)cc1O [Compound 3-36]
170 to 175 °C (dec.)

Another molecule to check: CCCCCCCCCc1ccc(C(=O)O)c(O)c1 [Compound 11-1, 4-Nonyl salicylic acid]
94 to 97 °C

Again, but for CC(=O)Nc1cccc(-c2ccc(COc3ccc(C(=O)O)c(O)c3)cc2)c1 [Compound 3-12]
231 to 233 °C (dec.)

Now try Nc1cccc(-c2ccc(COc3ccc(C(=O)O)c(O)c3)cc2)c1 [Compound 3-11] .
207 to 210 °C (dec.)

Now this one: O=C(O)c1ccc(OCCCCC(O)CO)cc1O (stereo not drawn) [Compound 2-3]
152 °C

Here is the next molecule: O=C(O)c1ccc(OCCCCCCC(O)CO)cc1O (stereo not drawn) [Compound 2-6]
168 to 170 °C

Please do the same for COc1cc(-c2cccc(COc3ccc(C(=O)O)c(O)c3)c2)ccc1O [Compound 3-26] as well.
153 to 157 °C (dec.)

What about O=C(O)c1ccc(OCCC(O)CO)cc1O (stereo not drawn) [Compound 2-2] ?
140 to 148 °C

Try this molecule too: O=C(O)c1ccc(-c2ccc(COc3ccc(C(=O)O)c(O)c3)cc2)cc1 [Compound 3-17]
279 to 284 °C (dec.)

Also CCCCCCCCOc1ccc(C(N)=O)c(O)c1 [Compound 12-4, 2-Hydroxy-4-octyloxy-benzamide] ?
123 to 124 °C

One more molecule: O=C(O)c1ccc(Oc2ccc([N+](=O)[O-])cc2)cc1O [Compound 8-1]
195 to 197 °C

Also check O=C(O)c1ccc(OCc2ccc(F)cc2)cc1O [Compound 1-18]
196 to 198 °C

Entry CC(=O)c1ccc(-c2ccc(COc3ccc(C(=O)O)c(O)c3)cc2)s1 [Compound 3-13] please
244 to 248 °C (dec.)

// same read-out, input: O=C(O)c1ccc(Nc2ccccc2[N+](=O)[O-])cc1O [Compound 8-12]
190 °C (dec.)

And O=C(O)c1ccc(OCc2cccc(-c3cc(Cl)cc(Cl)c3)c2)cc1O [Compound 3-31] ?
194 to 197 °C (dec.)

Subsequent entry: O=C(O)c1ccc(OCc2cccc(-c3ccc4ccccc4c3)c2)cc1O [Compound 3-38]
190 to 194 °C (dec.)

Now consider COc1ccc(-c2ccc(COc3ccc(C(=O)O)c(O)c3)cc2)cc1OC [Compound 3-15] and answer again.
200 to 204 °C (dec.)

Proceed to C=CCCCCOc1ccc(C(=O)O)c(O)c1 [Compound 1-7, 4-Hex-5-enyloxy-2-hydroxy-benzoic acid]
105 °C

Also check O=C(O)c1ccc(OCc2ccc(-c3ccc(CO)cc3)cc2)cc1O [Compound 3-16]
222 to 226 °C (dec.)

What about CC(=O)Nc1ccc(CNc2ccc(C(=O)O)c(O)c2)cc1 [Compound 6-3] ?
154 °C

Okay, and CC(=O)c1cccc(-c2cccc(COc3ccc(C(=O)O)c(O)c3)c2)c1 [Compound 3-20] ?
173 to 180 °C (dec.)

# repeat for O=C(O)c1ccc(OCc2cccc(-c3cccnc3)c2)cc1O [Compound 3-27]
189 to 195 °C (dec.)
